B1: Far upstream element-binding protein 1, residues 98 to 169; numbered along this chain, Q96AE4 (parent)
chain: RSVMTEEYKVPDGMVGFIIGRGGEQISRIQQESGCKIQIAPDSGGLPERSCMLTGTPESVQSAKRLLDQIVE

Variants of: B1
Experiment: abundance fitness (aPCA) (normalised: wild type 0, dead -1); higher = more abundant; growth selection in yeast, the domain comes from the species named
Settings: Homo sapiens
Given measured abundance fitness, output Fulfilled if it is greater than or equal to -0.09 and Not fulfilled if not.

Could you please find out whether RSVMTEEYKVPDGMVGFIIGRGGEQISRIQQESGCKIQIAPDSGGLCERSCMLTGTPESVQSAKRLLDQIVE [P47C] has abundance fitness that meets -0.09 or exceeds it? Fulfilled

Could you please find out whether RSVMTEEYKVPDGMVGFIIGRGGEQISRIQQESGCKIQIAPDSGGLPERSCMLTGTPESVQSAKRLLDQCVE [I70C] has abundance fitness that meets -0.09 or exceeds it? Fulfilled

Could you please find out whether RSVMTEEYKVPDGMVGFIIGRGGEQISRIQQESGCKIQIAPDSGGLPERSFMLTGTPESVQSAKRLLDQIVE [C51F] has abundance fitness that meets -0.09 or exceeds it? Fulfilled

Could you please find out whether RSVMTEEYKVPGGMVGFIIGRGGEQISRIQQESGCKIQIAPDSGGLPERSCMLTGTPESVQSAKRLLDQIVE [D12G] has abundance fitness that meets -0.09 or exceeds it? Fulfilled

Could you please find out whether RSVMTEEYKVPDGMVHFIIGRGGEQISRIQQESGCKIQIAPDSGGLPERSCMLTGTPESVQSAKRLLDQIVE [G16H] has abundance fitness that meets -0.09 or exceeds it? Fulfilled

Could you please find out whether RSVMTEEYKVPDGMVGFIIGRGGEQQSRIQQESGCKIQIAPDSGGLPERSCMLTGTPESVQSAKRLLDQIVE [I26Q] has abundance fitness that meets -0.09 or exceeds it? Not fulfilled

Could you please find out whether RSVMTEEYKVPDGMTGFIIGRGGEQISRIQQESGCKIQIAPDSGGLPERSCMLTGTPESVQSAKRLLDQIVE [V15T] has abundance fitness that meets -0.09 or exceeds it? Not fulfilled

Could you please find out whether RSVMTEEYKVPDGMVGFIDGRGGEQISRIQQESGCKIQIAPDSGGLPERSCMLTGTPESVQSAKRLLDQIVE [I19D] has abundance fitness that meets -0.09 or exceeds it? Not fulfilled

Could you please find out whether RSVMTKEYKVPDGMVGFIIGRGGEQISRIQQESGCKIQIAPDSGGLPERSCMLTGTPESVQSAKRLLDQIVE [E6K] has abundance fitness that meets -0.09 or exceeds it? Fulfilled

Could you please find out whether RSVMTEEYKVPDGMVGFIIGRGGEQISRIQQESGCKIQIAPDSGGLPERSCMLTGTPEHVQSAKRLLDQIVE [S59H] has abundance fitness that meets -0.09 or exceeds it? Fulfilled

Could you please find out whether RSVMTEEGKVPDGMVGFIIGRGGEQISRIQQESGCKIQIAPDSGGLPERSCMLTGTPESVQSAKRLLDQIVE [Y8G] has abundance fitness that meets -0.09 or exceeds it? Not fulfilled

Could you please find out whether RSVMTEEYKVPDGMVGFIIGRGGEQISRIQQESGCKIQIAPDSGGLPERSCMLTGTPESKQSAKRLLDQIVE [V60K] has abundance fitness that meets -0.09 or exceeds it? Not fulfilled

Could you please find out whether RSVMTEEYKVPDGMVGFLIGRGGEQISRIQQESGCKIQIAPDSGGLPERSCMLTGTPESVQSAKRLLDQIVE [I18L] has abundance fitness that meets -0.09 or exceeds it? Fulfilled

Could you please find out whether RSVMTEEYKVPDGMVGFIIGRGGEQISRIQQESGCKIQIAPDRGGLPERSCMLTGTPESVQSAKRLLDQIVE [S43R] has abundance fitness that meets -0.09 or exceeds it? Fulfilled

Could you please find out whether RSVMTEEYKVPDGMVGFIIGRGGEQISRIQQESGCKIQIAPDSGGLPERSCMLTGTPESVQSAKRLLDQEVE [I70E] has abundance fitness that meets -0.09 or exceeds it? Fulfilled

Could you please find out whether RSVMTEEYKVPDGMVGFIIGRGGEQISRIQQESGCAIQIAPDSGGLPERSCMLTGTPESVQSAKRLLDQIVE [K36A] has abundance fitness that meets -0.09 or exceeds it? Fulfilled

Could you please find out whether RSVMTEEYKVPDGMVGFIIGRGGEQISRIQQESGCKIQIAPDSGGLPERSCMDTGTPESVQSAKRLLDQIVE [L53D] has abundance fitness that meets -0.09 or exceeds it? Not fulfilled

Could you please find out whether RSVMTEEYKVPDGMVGFIIGRGGEQISRIQQESGCKTQIAPDSGGLPERSCMLTGTPESVQSAKRLLDQIVE [I37T] has abundance fitness that meets -0.09 or exceeds it? Not fulfilled

Could you please find out whether RTVMTEEYKVPDGMVGFIIGRGGEQISRIQQESGCKIQIAPDSGGLPERSCMLTGTPESVQSAKRLLDQIVE [S2T] has abundance fitness that meets -0.09 or exceeds it? Fulfilled

Could you please find out whether RSVMTEEYKVPDGMVGFIIGRGGEQHSRIQQESGCKIQIAPDSGGLPERSCMLTGTPESVQSAKRLLDQIVE [I26H] has abundance fitness that meets -0.09 or exceeds it? Not fulfilled

Could you please find out whether RSVMIEEYKVPDGMVGFIIGRGGEQISRIQQESGCKIQIAPDSGGLPERSCMLTGTPESVQSAKRLLDQIVE [T5I] has abundance fitness that meets -0.09 or exceeds it? Fulfilled

Could you please find out whether RSVMTEEYKVPDGMVGFIIGRGGEQISRIQQESGCKIQTAPDSGGLPERSCMLTGTPESVQSAKRLLDQIVE [I39T] has abundance fitness that meets -0.09 or exceeds it? Not fulfilled

Could you please find out whether RSVMTEEYKVPDGMVGFIIGRGYEQISRIQQESGCKIQIAPDSGGLPERSCMLTGTPESVQSAKRLLDQIVE [G23Y] has abundance fitness that meets -0.09 or exceeds it? Fulfilled

Could you please find out whether RSVMTEEYKVPDGMVGFIIGRGGEQISRIQQESGCKIQIAPDSGGLPERSCMLTGTPESVQSAKRLLDQIYE [V71Y] has abundance fitness that meets -0.09 or exceeds it? Not fulfilled

Could you please find out whether RSVMTEEYKVPDGMVGFIIGRGGEQISRIQQESGCKIQIAPDSGGLPERSCMLTGTPESVRSAKRLLDQIVE [Q61R] has abundance fitness that meets -0.09 or exceeds it? Fulfilled

Could you please find out whether RSVMTEEYKVPDGMVGFIIGRGGEQISRIQQESGCKIQIAPDSGTLPERSCMLTGTPESVQSAKRLLDQIVE [G45T] has abundance fitness that meets -0.09 or exceeds it? Fulfilled

Could you please find out whether RSVMTEEYKVPDGMVGFIIGRGGEQISRIQQESGCKIQIAPDSGGLPERSCMLTGTPLSVQSAKRLLDQIVE [E58L] has abundance fitness that meets -0.09 or exceeds it? Fulfilled

Could you please find out whether RSVMTEEYKVPDGMVGFIIGRGGEQISRIQQESGCKIQIAPDSGGLPERSCMLLGTPESVQSAKRLLDQIVE [T54L] has abundance fitness that meets -0.09 or exceeds it? Fulfilled

Could you please find out whether RSVMTEEYKVPDGMVGFIIGRGGEQISRIQQESGCKIQIAPDSGGLPERSCMLTGTPESVQSHKRLLDQIVE [A63H] has abundance fitness that meets -0.09 or exceeds it? Not fulfilled

Could you please find out whether RSVMTEEYKVPDGMIGFIIGRGGEQISRIQQESGCKIQIAPDSGGLPERSCMLTGTPESVQSAKRLLDQIVE [V15I] has abundance fitness that meets -0.09 or exceeds it? Fulfilled

Could you please find out whether RSVMTEEYKVPDGMVGFIIGRGGEQISRIQQYSGCKIQIAPDSGGLPERSCMLTGTPESVQSAKRLLDQIVE [E32Y] has abundance fitness that meets -0.09 or exceeds it? Not fulfilled

Could you please find out whether RSVMTEEYKVPDGSVGFIIGRGGEQISRIQQESGCKIQIAPDSGGLPERSCMLTGTPESVQSAKRLLDQIVE [M14S] has abundance fitness that meets -0.09 or exceeds it? Fulfilled

Could you please find out whether RSVMTEEYKVPDGMVGFIIGRGGEQISRIQQESGCKIQIAPDSGGLPERTCMLTGTPESVQSAKRLLDQIVE [S50T] has abundance fitness that meets -0.09 or exceeds it? Fulfilled

Could you please find out whether RSVMQEEYKVPDGMVGFIIGRGGEQISRIQQESGCKIQIAPDSGGLPERSCMLTGTPESVQSAKRLLDQIVE [T5Q] has abundance fitness that meets -0.09 or exceeds it? Fulfilled

Could you please find out whether RSVMTEEYKVPDGMVGFIIGRGGEQISRIQQESGCKIQIAPDSGGLPERHCMLTGTPESVQSAKRLLDQIVE [S50H] has abundance fitness that meets -0.09 or exceeds it? Not fulfilled

Could you please find out whether RSVMTEEYKVPDGMVGFIIQRGGEQISRIQQESGCKIQIAPDSGGLPERSCMLTGTPESVQSAKRLLDQIVE [G20Q] has abundance fitness that meets -0.09 or exceeds it? Not fulfilled

Could you please find out whether RSVMTEEYKVPDGMVGFIIGRGGEQISRIQQESGCKIQIAPDSGGLPERSCMLTGTPESVQSAKILLDQIVE [R65I] has abundance fitness that meets -0.09 or exceeds it? Fulfilled

Could you please find out whether RSVMTEEYKVQDGMVGFIIGRGGEQISRIQQESGCKIQIAPDSGGLPERSCMLTGTPESVQSAKRLLDQIVE [P11Q] has abundance fitness that meets -0.09 or exceeds it? Not fulfilled

Could you please find out whether RSVMTEEYKVPDGMVGFIIGRGGEQISRIQQESGCKIQIAPDSGGLPERSCMLTGTPESTQSAKRLLDQIVE [V60T] has abundance fitness that meets -0.09 or exceeds it? Not fulfilled

Could you please find out whether RSVMTEEYKVPDGMVGFIIFRGGEQISRIQQESGCKIQIAPDSGGLPERSCMLTGTPESVQSAKRLLDQIVE [G20F] has abundance fitness that meets -0.09 or exceeds it? Not fulfilled

Could you please find out whether RSVMTEEYKVPDGMVGFIIGRGGEQISRIQQESGCKIQIAPDSGGEPERSCMLTGTPESVQSAKRLLDQIVE [L46E] has abundance fitness that meets -0.09 or exceeds it? Fulfilled
